target: CYP3A4 (Homo sapiens, UniProt P08684); test: Inhibition of CYP3A4 at 1 uM; format: ADME
Sequence (P08684 whole entry): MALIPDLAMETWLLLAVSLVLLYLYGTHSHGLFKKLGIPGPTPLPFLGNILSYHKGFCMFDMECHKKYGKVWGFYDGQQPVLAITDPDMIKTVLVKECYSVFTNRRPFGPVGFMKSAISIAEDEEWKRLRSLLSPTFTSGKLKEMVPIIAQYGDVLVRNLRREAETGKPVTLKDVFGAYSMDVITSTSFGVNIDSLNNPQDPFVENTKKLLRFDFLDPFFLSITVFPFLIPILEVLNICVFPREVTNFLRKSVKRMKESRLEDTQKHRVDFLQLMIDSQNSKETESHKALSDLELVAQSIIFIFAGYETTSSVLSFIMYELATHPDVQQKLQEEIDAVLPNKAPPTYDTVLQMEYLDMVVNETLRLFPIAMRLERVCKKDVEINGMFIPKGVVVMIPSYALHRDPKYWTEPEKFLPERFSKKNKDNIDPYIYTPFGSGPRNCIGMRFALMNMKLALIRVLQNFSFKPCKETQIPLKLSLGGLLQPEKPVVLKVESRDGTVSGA

[
  {
    "smiles.input": "CC(C)CCn1ccc(-c2ccc(Oc3ccncc3)cc2)c(C#N)c1=O",
    "inhibition at 1 µM / %": 70
  }
]

* * *

target: Metabotropic glutamate receptor 2 (Homo sapiens); experiment: Positive allosteric modulation of human mGlu2 receptor expressed in CHO cells assessed as glutamate-induced [35S]GTPgammaS binding after 30 mins by liquid scintillation counting relative to glutamate; format: functional, cell-based
Sequence (Q14416 19-872 limits assumed): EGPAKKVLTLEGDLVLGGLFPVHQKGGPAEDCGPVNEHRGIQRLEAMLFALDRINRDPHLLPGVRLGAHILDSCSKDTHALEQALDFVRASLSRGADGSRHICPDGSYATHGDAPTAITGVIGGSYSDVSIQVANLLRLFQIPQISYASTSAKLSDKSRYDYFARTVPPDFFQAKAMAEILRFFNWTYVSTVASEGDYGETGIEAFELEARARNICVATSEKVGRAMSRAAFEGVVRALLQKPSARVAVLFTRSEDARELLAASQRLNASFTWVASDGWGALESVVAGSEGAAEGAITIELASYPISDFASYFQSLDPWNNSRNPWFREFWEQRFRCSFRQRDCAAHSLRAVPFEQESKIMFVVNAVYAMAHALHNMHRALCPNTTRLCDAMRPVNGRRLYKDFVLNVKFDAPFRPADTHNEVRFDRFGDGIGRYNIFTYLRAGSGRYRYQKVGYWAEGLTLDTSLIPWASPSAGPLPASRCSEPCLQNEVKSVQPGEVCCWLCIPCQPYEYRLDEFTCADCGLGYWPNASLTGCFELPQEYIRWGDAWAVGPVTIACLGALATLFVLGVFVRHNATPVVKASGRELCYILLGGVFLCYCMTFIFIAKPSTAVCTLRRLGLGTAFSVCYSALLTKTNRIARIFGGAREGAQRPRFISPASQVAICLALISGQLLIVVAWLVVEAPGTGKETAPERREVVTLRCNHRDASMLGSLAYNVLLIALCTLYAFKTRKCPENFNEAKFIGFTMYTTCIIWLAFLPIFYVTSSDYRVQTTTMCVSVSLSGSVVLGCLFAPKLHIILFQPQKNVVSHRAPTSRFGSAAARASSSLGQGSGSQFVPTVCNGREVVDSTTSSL
Field 'label' (enum: class 1 / class 0). Set to class 1 when Emax is strictly under 200%; else class 0.

[
  {
    "smiles.input": "CC(C)CCn1ccc(-c2ccc(Nc3ccncc3)cc2)c(C#N)c1=O",
    "label.value": "class 1"
  },
  {
    "smiles.input": "CCCCn1ccc(-c2ccc(Oc3ccnc(C)c3)c(F)c2)c(C#N)c1=O",
    "label.value": "class 0"
  },
  {
    "smiles.input": "COc1ccc(-c2ccn(CCC(C)C)c(=O)c2C#N)cc1OC",
    "label.value": "class 0"
  },
  {
    "smiles.input": "CCCCn1ccc(-c2ccc(Oc3ccc(C)nc3C)c(Cl)c2)c(C#N)c1=O",
    "label.value": "class 0"
  },
  {
    "smiles.input": "CC(C)CCn1ccc(-c2ccccc2)c(C#N)c1=O",
    "label.value": "class 1"
  },
  {
    "smiles.input": "Cc1cc(Oc2ccc(-c3ccn(CCC(C)C)c(=O)c3C#N)cc2)ccn1",
    "label.value": "class 0"
  },
  {
    "smiles.input": "CCCCn1ccc(-c2ccc(Oc3ccnc(C)c3)cc2F)c(C#N)c1=O",
    "label.value": "class 0"
  },
  {
    "smiles.input": "CC(C)CCn1ccc(-c2ccc(Oc3ccccc3)cc2)c(C#N)c1=O",
    "label.value": "class 1"
  },
  {
    "smiles.input": "CCCCn1ccc(-c2ccc(Oc3cccnc3C)c(Cl)c2)c(C#N)c1=O",
    "label.value": "class 0"
  },
  {
    "smiles.input": "CCCCn1ccc(-c2ccc(Oc3ccnc(C)c3)c(Cl)c2)c(C#N)c1=O",
    "label.value": "class 0"
  },
  {
    "smiles.input": "CCCCn1ccc(-c2ccc(Oc3cc(C)nc(C)c3)c(F)c2)c(C#N)c1=O",
    "label.value": "class 0"
  },
  {
    "smiles.input": "CCCCn1ccc(-c2ccc(Oc3ccc(C)nc3C)cc2)c(C#N)c1=O",
    "label.value": "class 0"
  },
  {
    "smiles.input": "CC(C)CCn1ccc(-c2ccc(Oc3ccccn3)cc2)c(C#N)c1=O",
    "label.value": "class 0"
  },
  {
    "smiles.input": "Cc1ncccc1Oc1ccc(-c2ccn(CC3CC3)c(=O)c2C#N)cc1Cl",
    "label.value": "class 1"
  },
  {
    "smiles.input": "Cc1ncccc1Oc1ccc(-c2ccn(CC3CC3)c(=O)c2C#N)cc1",
    "label.value": "class 1"
  },
  {
    "smiles.input": "Cc1ccc(Oc2ccc(-c3ccn(CC4CC4)c(=O)c3C#N)cc2)c(C)n1",
    "label.value": "class 1"
  },
  {
    "smiles.input": "Cc1cc(Oc2ccc(-c3ccn(CC4CCC4)c(=O)c3C#N)cc2)ccn1",
    "label.value": "class 0"
  },
  {
    "smiles.input": "Cc1ncccc1Oc1ccc(-c2ccn(CCC(C)C)c(=O)c2C#N)cc1",
    "label.value": "class 0"
  }
]
